# credit: BigSolDB 2.1

Details: in n-propyl acetate, 313.15 K

- smiles-notation: "COc1cc2c(cc1OC)C(=O)CC2"
  solubility (mole fraction): 0.0962

----------
Conditions: in methanol, 323.15 K

- smiles-notation: "COc1cc2c(cc1OC)C(=O)CC2"
  solubility (mole fraction): 0.0902

----------
Settings: in methyl acetate, 313.15 K
outcome-measure: solubility (mole fraction)

- smiles-notation: "COc1cc2c(cc1OC)C(=O)CC2"
  result: 0.139

----------
Settings: in methanol, 313.15 K

- smiles-notation: "COc1cc2c(cc1OC)C(=O)CC2"
  solubility (mole fraction): 0.0547

----------
Details: in n-butanol, 303.15 K
outcome-measure: solubility (mole fraction)

- smiles-notation: "COc1cc2c(cc1OC)C(=O)CC2"
  outcome-measure: "solubility (mole fraction)"
  result: 0.0352

----------
Settings: in n-propyl acetate, 288.15 K
outcome-measure: solubility (mole fraction)

- smiles-notation: "COc1cc2c(cc1OC)C(=O)CC2"
  result: 0.0424

----------
Conditions: in methyl acetate, 318.15 K

- smiles-notation: "COc1cc2c(cc1OC)C(=O)CC2"
  solubility (mole fraction): 0.159

----------
Conditions: in n-propanol, 283.15 K

- smiles-notation: "COc1cc2c(cc1OC)C(=O)CC2"
  solubility (mole fraction): 0.00925

----------
Conditions: in isopropanol, 313.15 K
outcome-measure: solubility (mole fraction)

- smiles-notation: "COc1cc2c(cc1OC)C(=O)CC2"
  outcome-measure: "solubility (mole fraction)"
  result: 0.0354

----------
Conditions: in n-pentanol, 293.15 K

- smiles-notation: "COc1cc2c(cc1OC)C(=O)CC2"
  solubility (mole fraction): 0.0216

----------
Settings: in isopropyl acetate, 293.15 K

- smiles-notation: "COc1cc2c(cc1OC)C(=O)CC2"
  solubility (mole fraction): 0.0396

----------
Conditions: in isopropanol, 288.15 K
outcome-measure: solubility (mole fraction)

- smiles-notation: "COc1cc2c(cc1OC)C(=O)CC2"
  result: 0.00802

----------
Details: in methyl acetate, 298.15 K

- smiles-notation: "COc1cc2c(cc1OC)C(=O)CC2"
  solubility (mole fraction): 0.0793

----------
Details: in isobutanol, 283.15 K
outcome-measure: solubility (mole fraction)

- smiles-notation: "COc1cc2c(cc1OC)C(=O)CC2"
  result: 0.0123

----------
Conditions: in ethyl acetate, 293.15 K

- smiles-notation: "COc1cc2c(cc1OC)C(=O)CC2"
  solubility (mole fraction): 0.059

----------
Conditions: in n-butyl acetate, 298.15 K
outcome-measure: solubility (mole fraction)

- smiles-notation: "COc1cc2c(cc1OC)C(=O)CC2"
  result: 0.0428

----------
Details: in sec-butanol, 303.15 K

- smiles-notation: "COc1cc2c(cc1OC)C(=O)CC2"
  solubility (mole fraction): 0.0357

----------
Conditions: in isopropyl acetate, 288.15 K

- smiles-notation: "COc1cc2c(cc1OC)C(=O)CC2"
  solubility (mole fraction): 0.0329

----------
Details: in n-butyl acetate, 303.15 K

- smiles-notation: "COc1cc2c(cc1OC)C(=O)CC2"
  solubility (mole fraction): 0.0503

----------
Conditions: in isobutanol, 303.15 K

- smiles-notation: "COc1cc2c(cc1OC)C(=O)CC2"
  solubility (mole fraction): 0.0385
